FYI, the data here is from the supplement of paper PMC9112550.

# Test system: Escherichia coli TOP10;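 note: peptides expressed intracellularly from a pBAD plasmid library in pooled LB shake-flask culture, induced with 0.3% L-arabinose, DNA abundance read by NGS, three biological replicates, DESeq2 with apeglm shrinkage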
# Method: shrunken log2 fold change of peptide-encoding DNA abundance (4.5 h post-induction vs induction); higher = less antimicrobial activity (less host growth inhibition)
# Stated Conditions: time post-induction: 4.5 h; library: site-saturation at positions 5, 18, 19, 20
Would you mind telling me the reported shrunken log2 fold change of each entry?
Respond using a number only.

Which shrunken log2 fold change reading was recorded for the sequence RRIRHRPPRLPRPRPRPEHHPRP ?
-0.0643

Try this sequence next: RRIRYRPPRLPRPRPRPHKWPRP
-0.581

Same lookup for RRIRGRPPRLPRPRPRPCVQPRP , please.
0.523

Field entry: RRIRSRPPRLPRPRPRPKDEPRP
0.382

Repeat with RRIRFRPPRLPRPRPRPTYMPRP
-0.0541

How about this sequence: RRIRNRPPRLPRPRPRPYSIPRP
-0.534

Okay, and RRIRDRPPRLPRPRPRPFRHPRP ?
-0.125

Also RRIRCRPPRLPRPRPRPSNYPRP ?
-0.348

Input RRIRCRPPRLPRPRPRPEQSPRP
0.67

Note, next up: RRIRWRPPRLPRPRPRPSAQPRP
0.422

Record: RRIRRRPPRLPRPRPRPKFLPRP
0.133

// same read-out, input: RRIRWRPPRLPRPRPRPWGWPRP
0.276

Query RRIRQRPPRLPRPRPRPYRCPRP next
-0.122

Also RRIRSRPPRLPRPRPRPSAVPRP ?
0.091

# iterate: RRIRWRPPRLPRPRPRPQERPRP
-0.0207

Can you handle RRIRIRPPRLPRPRPRPDLVPRP next?
-0.201

Queued: RRIRGRPPRLPRPRPRPLSSPRP
0.598

Similarly, RRIRLRPPRLPRPRPRPTKFPRP ?
-0.0571

How about this sequence: RRIRTRPPRLPRPRPRPAHYPRP
-0.227

Moving on to RRIRWRPPRLPRPRPRPPEYPRP
0.539

For RRIRERPPRLPRPRPRPEWAPRP then?
0.103

Request: RRIRMRPPRLPRPRPRPWDRPRP
0.158

Do the same for RRIRWRPPRLPRPRPRPDEKPRP please
0.0625

Same again, this time with RRIRGRPPRLPRPRPRPWDIPRP
0.212

Please give the result for RRIRYRPPRLPRPRPRPIRTPRP too.
-0.258

Same read-out for RRIRRRPPRLPRPRPRPYIDPRP ?
-0.339

Would you kindly repeat that for RRIRPRPPRLPRPRPRPYMNPRP ?
-1.01

Also need RRIRDRPPRLPRPRPRPVIIPRP , thanks.
-0.316

What about RRIRPRPPRLPRPRPRPHPIPRP ?
0.0162

Next sequence up: RRIRRRPPRLPRPRPRPGAQPRP
0.352

Proceed to RRIRVRPPRLPRPRPRPIYEPRP
-0.184

Now this one: RRIRLRPPRLPRPRPRPCYIPRP
-0.115

Entry RRIRWRPPRLPRPRPRPPTPPRP please
1.4

Then this sequence: RRIRARPPRLPRPRPRPPLEPRP
0.583

What do you get for RRIRTRPPRLPRPRPRPWWLPRP ?
0.125

Now give it for RRIRTRPPRLPRPRPRPYYCPRP too.
-0.249

Here is the next sequence: RRIRMRPPRLPRPRPRPKMFPRP
0.0019

Same again, this time with RRIRHRPPRLPRPRPRPSQWPRP
-0.451

And for RRIRPRPPRLPRPRPRPDKRPRP ?
0.00792

Next record, please: RRIRGRPPRLPRPRPRPEDQPRP
0.0373

Now consider RRIRIRPPRLPRPRPRPETWPRP and answer again.
0.142

Continue with RRIRFRPPRLPRPRPRPAVVPRP
-0.231

Query RRIRERPPRLPRPRPRPVIVPRP next
-0.373

RRIRTRPPRLPRPRPRPAYSPRP ?
0.0215

Now consider RRIRLRPPRLPRPRPRPKFLPRP .
-0.173

How about RRIRSRPPRLPRPRPRPMHMPRP ?
-0.13

Ok, now RRIRMRPPRLPRPRPRPMGIPRP
-0.0393
